# Test system: RXF 393 renal
# ASSAY_OVERVIEW: NCI-60 one-dose screen, 48 h (100 = growth as untreated, 0 = no growth, -100 = all killed)
# TEST_SETTINGS: 10 µM unless noted
About 83,000 compounds went through this panel and 20% of them were active in at least one assay; those are over-represented in the sample as a whole. Activity calls are given as the source filed them. The calls were made as follows: active = growth percent below 10; inactive = the rest.
EXPERIMENTAL_ENDPOINT: growth

Form: molecule = Nc1nc(N)c2c(n1)NC(c1cccc(Nc3ccnc4cc(C(F)(F)F)ccc34)c1)CC(c1ccc3c(c1)OCO3)=N2 (centres undefined) ; growth = 52.2% (inactive)

Form: molecule = Nc1nc2ccccc2c2c(=O)c3cc(Cl)ccc3sc12 ; growth = 108% (inactive)

Form: molecule = Cc1ccccc1N1CCN(C(=S)c2ccccc2)CC1 ; growth = 96.6% (inactive)

Form: molecule = CC[C@H](Nc1nc(N)nc(C)c1C#N)c1nc2cccc(CN(C)c3ncc(C(=O)NO)cn3)c2c(=O)n1-c1ccccc1 ; growth = -61% (active)

Form: molecule = O=C1/C(=C/c2ccc(Cl)cc2)CN(C(=O)C(Cl)Cl)C/C1=C\c1ccc(Cl)cc1 ; growth = -88.2% (active)

Form: molecule = COc1ccc2[nH]cc(-c3nonc3-c3c[nH]c4ccc(Br)cc34)c2c1 ; growth = 76.7% (inactive)

Form: molecule = CC(C)=CC(=O)N[C@H]1CC[C@]2(C)C3CC[C@]4(C)C(C(C)N(C)C)=CCC4C3CCC2[C@H]1O (some centres undefined) ; growth = 26.8% (inactive)

Form: molecule = O=c1cc(-c2ccccc2)nc(SCc2nc3cc(Cl)c(Cl)cc3[nH]2)[nH]1 ; growth = 107% (inactive)

Form: molecule = O=C(CN1C(=O)S/C(=C\C(Cl)=C\c2ccccc2)C1=O)NC1CCS(=O)(=O)C1 (centres undefined) ; growth = 26.7% (inactive)

Form: molecule = Cn1cc(-c2csc(-c3cn(C)c4ccccc34)n2)c2cnccc21 ; growth = -40.7% (active)

Form: molecule = O=C1/C(=C/c2ccccn2)SC(=S)N1N1CCOCC1 ; growth = 92.5% (inactive)

Form: molecule = Cc1ccc2c(c1)nc(C)n2-c1ncnc2c1CC(C)c1cc(O)ccc1N2C (centres undefined) ; growth = 10.7% (inactive)

Form: molecule = N#Cc1c(-c2ccc(Br)cc2)nc2c(N=Nc3ccc(S(N)(=O)=O)cc3)c(N)nn2c1N ; growth = 42.2% (inactive)

Form: molecule = O=C(/C=C/C12c3ccccc3C(c3ccccc31)C1C(=O)NC(=O)C12)c1ccco1 (centres undefined) ; growth = 1.72% (active)

Form: molecule = C#CCOc1cccc(Nc2ncnc3c2ncn3C2CCN(C(=O)CCl)C2)c1 (centres undefined) ; growth = -79.4% (active)

Form: molecule = C=C(c1ccc(C(=O)O)c(F)c1)c1cc2c(cc1C)C(C)(C)CCC2(C)C ; growth = 90.9% (inactive)

Form: molecule = O=C(Cn1nc(-c2cccc3ccccc23)ccc1=O)NCc1cccc(Cl)c1 ; growth = 37.7% [50 µM] (inactive)

Form: molecule = CC(C)(C)OC(=O)CN1CCc2c(sc3ncnc(N4CCN(c5ccc(F)cc5)CC4)c23)C1 ; growth = 92.2% (inactive)

Form: molecule = Oc1c(CN2CCC(N3CCOCC3)CC2)cc(Cc2cc(CN3CCC(N4CCOCC4)CC3)c(O)c3ncccc23)c2cccnc12 ; growth = 53.5% (inactive)

Form: molecule = COc1ccc(-c2cc(C(=O)N3N=C(c4ccc(N)cc4)CC3c3ccc(Cl)cc3)c3cc(OC)ccc3n2)cc1 (centres undefined) ; growth = 78.9% (inactive)

Form: molecule = Cn1cc(-c2nc3c(F)cc4[nH]ncc4c3c3c2CCCC3)c(C(F)(F)F)n1 ; growth = 23% (inactive)

Form: molecule = COc1ccccc1/C=C/C(=O)Nc1ccc(F)cc1 ; growth = 102% (inactive)

Form: molecule = COc1ccc(-c2nc3c(c(-c4ccc(Cl)cc4)nn3-c3ccccc3)c(-c3ccccc3)c2C#N)cc1 ; growth = 134% (inactive)

Form: molecule = CN(C)c1ccc(/C=C2\C=C(c3nc4ccccc4s3)OC2=O)cc1 ; growth = 110% (inactive)

Form: molecule = COc1ccc(C(=O)Nc2ncc(Cc3ccc(Cl)cc3)s2)cc1 ; growth = 3.43% (active)

Form: molecule = C=C(C)[C@@H]1CC[C@]2(C(=O)N3CCNCC3)CC[C@]3(C)[C@H](CC[C@@H]4[C@@](C)(CCC(=O)N5CCNCC5)[C@H](C(=C)C)CC[C@]43C)[C@@H]12 ; growth = 82.2% (inactive)

Form: molecule = O=C(NCc1ccc(Cn2c(=O)sn(-c3ccccc3)c2=O)cc1)OCc1ccc2cccc(O)c2n1 ; growth = -94.3% (active)

Form: molecule = CCn1cc(Cc2cc(C(=O)Nc3cc4cc(OC)c(OC)cc4c(C)n3)ccc2Cl)cn1 ; growth = 73.2% (inactive)

Form: molecule = CCOC(=O)c1cnn(CC(C)O)c1NC(=O)NCc1ccccc1C(F)(F)F (centres undefined) ; growth = 111% (inactive)

* * *

# Tested on: HT29 colon
# ASSAY_OVERVIEW: NCI-60 one-dose screen, 48 h
# TEST_SETTINGS: 10 µM unless noted
About 83,000 compounds went through this panel and 20% of them were active in at least one assay; those are over-represented in the sample as a whole. The source made the active and inactive calls. How the source made its calls: active means growth percent below 10; inactive means the rest.
Outcome (select one): active, inactive

Hi, sorry to bother you, what did the test record for c1cc(OCCCCCOc2cccc(-c3nc4ccccc4[nH]3)c2)cc(-c2nc3ccccc3[nH]2)c1 ?
active

Hi, sorry to bother you, what did the test record for COc1ccc2cc(C(=O)N3CCC([C@@H](C)C(=O)NCc4ccc5c(c4)OCO5)CC3)[nH]c2c1 ?
inactive

Hi, sorry to bother you, what did the test record for O=C(/C=C/c1cn(-c2ccccc2)nc1-c1ccccc1)CCC(=O)NO ?
inactive

Hi, sorry to bother you, what did the test record for O=c1c2ccccc2n(C[C@H]2CO2)c2ccccc12 ?
active

Hi, sorry to bother you, what did the test record for COC(=O)[C@@]1(C)CC[C@]2(C)CC[C@]3(C)C4=CC=C5C(=CC(=O)C(O)=C5C)[C@]4(C)[C@@H](O)C[C@@]3(C)[C@@H]2C1 ?
inactive

* * *

# System: HS 578T breast
# ASSAY_OVERVIEW: NCI-60 one-dose screen, 48 h (100 = growth as untreated, 0 = no growth, -100 = all killed)
# TEST_SETTINGS: 10 µM unless noted
About 83,000 compounds went through this panel and 20% of them were active in at least one assay; those are over-represented in the sample as a whole.
I'd appreciate it if you could supply growth values for the items below.
Report as a plain number; the unit % is understood.

Form: molecule = O=c1ccc2ccc(OCCN3CCCCC3)cc2o1 ; growth = 96.5

Form: molecule = CCn1cc(C(=O)N/N=C/c2cccc(F)c2)c(=O)c2cc(F)c(N3CCNC(C)C3)c(F)c21 (centres undefined) ; growth = 81.3

Form: molecule = COc1ccc(/C=C(/C(=O)N2CCNCC2)c2cc(OC)c(OC)c(OC)c2)cc1O ; growth = 26.7

Form: molecule = CC1=C2CC/C(C)=C/CC[C@]3(C)O[C@H]3CC/C(C)=C/[C@H]2OC1 ; growth = 108

Form: molecule = Nc1nc(C(=O)N/N=C/c2ccc(F)cc2)nn1-c1ccc(S(N)(=O)=O)cc1 ; growth = 101

Form: molecule = O=C(NCCNC(c1ccccc1)C(NCCNC(=O)c1ccccc1)c1ccccc1)c1ccccc1 (centres undefined) ; growth = 115

Form: molecule = COCCn1cc(-c2nc(-c3cc4cccnc4n3C)cs2)c2ccccc21 ; growth = 61.5

Form: molecule = O=C(Nc1ccc(Oc2cccc(Cl)c2)c(Cl)c1)c1cccnn1 ; growth = 106

Form: molecule = CC(=O)c1sc(-c2ccc(F)cc2)cc1O ; growth = 117

* * *

# Test system: SNB-75 CNS
# ASSAY_OVERVIEW: NCI-60 one-dose screen, 48 h
# TEST_SETTINGS: 10 µM unless noted
Compounds without any hit were thinned out: in the full panel of roughly 83,000, 20% have a hit. Activity calls are given as the source filed them. Rule for the calls: active = growth percent below 10; inactive = the rest.
Outcome (select one): active, inactive

Hi, sorry to bother you, what did the test record for COc1ccc(C2C3=C(COC3=O)N(CCO)c3cc4c(cc32)OCO4)cc1OC (centres undefined) ?
inactive

Hi, sorry to bother you, what did the test record for CC1=Nc2cnc(Nc3ccc(N4CCCCC4)cc3)nc2Nc2ccccc21 ?
inactive

Hi, sorry to bother you, what did the test record for C/C(=C(\c1ccc(OCCN2CCCCCC2)cc1)c1ccc(OC(=O)c2ccccc2)cc1)c1ccc(Cl)cc1 ?
inactive

Hi, sorry to bother you, what did the test record for COC12C=C/C(=C(/C(=O)OCCSc3ccnn3C)C(=O)CCCCCCCCC3(OC)C=C/C(=C(/C(=O)OCCSc4ccnn4C)C(=O)CCCCCCCC1)O3)O2 ?
inactive

Hi, sorry to bother you, what did the test record for CC(=O)N1N=C(c2ccc(Nc3nc(Nc4ccc(F)cc4)nc(Nc4ccc(F)cc4)n3)cc2)CC1c1ccc(N(C)C)cc1 (centres undefined) ?
inactive

Hi, sorry to bother you, what did the test record for O=C1O[C@@H](c2ccccc2Cl)[C@@H]2c3cc4c(cc3CCN12)OCO4 ?
inactive

Hi, sorry to bother you, what did the test record for C#Cc1cccc(NC(=O)C2CCCCN2C(=O)CCl)c1 (centres undefined) ?
active

Hi, sorry to bother you, what did the test record for O=C(Nc1cccnc1Nc1ccccc1)c1cn(Cc2cccc(Oc3ccccc3)c2)nn1 ?
inactive

Hi, sorry to bother you, what did the test record for O=C(OCc1ccc2c(Cl)cc(Cl)c(O)c2n1)N1CCN(C(=O)c2cc3ccccc3[nH]2)CC1 ?
inactive
